Data origin: PubChem BioAssay (NCI)

# Test system: MDA-MB-468 breast
# assay-notes: NCI-60 one-dose screen, 48 h (100 = growth as untreated, 0 = no growth, -100 = all killed)
# protocol-conditions: 10 µM unless noted
# Procedure: Growth inhibition of the MDA-MB-468 human Breast tumor cell line is measured as a screen for anti-cancer activity. Cells are grown in 96 well plates and exposed to the test compound for 48 hours. Compounds are tested at a single concentration, which is 10^-5 M for most compounds. The reported endpoint is percent growth (GI% or GIPRCNT), where numbers from 0 - 100% represent growth inhibition, and numbers from -100% - 0 represent cell death. […]
This is part of a sample that, as a whole, favours compounds with a hit. Of some 83,000 tested, about 20% had one in any assay.
The label depends only on growth: class 1 if it is at least 10%, class 0 if it is smaller.

A selection of reference data follows.
molecule=Brc1ccc(N/N=C/c2c[nH]c3ccc(Br)cc23)nc1 measured_on="MDA-MB-468 breast" label_value="class 0"
molecule=C/C(=N\Nc1ccc(S(N)(=O)=O)cc1)c1ccc(N=Nc2c(Nc3ccccc3)[nH][nH]c2=O)cc1 measured_on="MDA-MB-468 breast" label_value="class 0"
molecule=COc1ccc(-c2nc3cc(C)ccc3n2CC(=O)N=Nc2c(O)[nH]c3ccc(Br)cc23)cc1 measured_on="MDA-MB-468 breast" label_value="class 0"

Query: Tell me whether growth is at least 10% here: `COc1ccc(C(=O)/C=C/c2cccnc2)cc1S(N)(=O)=O`
Response: class 1

Query: Continue with COc1cc(C2CC(c3cc(OC)c(OC)c(OC)c3)=NN2C(C)=O)ccc1OCc1ccccc1 (centres undefined)
Response: class 1

Query: Now the same for `O=C(CSc1nc2ccccc2c(=O)[nH]1)NCCN1CCCCC1`
Response: class 1

Query: Query C=C1CC[C@@H]2[C@]3(C)COC(c4cn(-c5ccccc5)nc4-c4cccc([N+](=O)[O-])c4)O[C@@H]3CC[C@@]2(C)[C@@H]1C/C=C1/C(=O)OC[C@H]1O (some centres undefined) next
Response: class 0

Query: Moving on to `CN(C)c1ccnc(CNCCSC2(c3ccc(C(F)(F)F)cc3)c3ccccc3CCc3ccccc32)c1`
Response: class 0

====

Measured growth of individual entries
# Tested on: ACHN renal
# assay-notes: NCI-60 one-dose screen, 48 h (100 = growth as untreated, 0 = no growth, -100 = all killed)
# protocol-conditions: 10 µM unless noted
The panel holds about 83,000 compounds, 20% with a hit somewhere; the sample as a whole holds those more often.
Expressed in %, but write only the number.

Known growth results, listed for orientation:
compound="Cc1nc(Nc2ncc(C(=O)Nc3c(C)cccc3Cl)s2)cc(N2CCN(CCCNC(=O)COc3ccc(C4CCC(=O)NC4=O)cc3)CC2)n1 (centres undefined)" measurement_kind=growth quantitative_result=8.27
compound=O=C(O)c1cccc(-c2ccc(/C=N/NC(=O)c3[nH]c4ccc(Br)cc4c3-c3ccccc3)o2)c1 measurement_kind=growth quantitative_result=89.9
compound=C/C(=N\N=C1/C(=O)Nc2ccccc21)c1ccc2c(c1)Nc1ccccc1S2 measurement_kind=growth quantitative_result=56.1
compound=COc1ccc(-c2ccc(SCC(=O)Nc3ccc(S(N)(=O)=O)cc3Br)nn2)cc1 measurement_kind=growth quantitative_result=86.7
compound="CC1=C(C(=O)OCc2ccccc2)C(c2ccc(-n3cncn3)cc2)n2c(nc3ccccc32)N1 (centres undefined)" measurement_kind=growth quantitative_result=51.3

Query: // growth lookup, key: `CC(=O)c1c(N)c(C#N)cn1-c1ccc(Cl)cc1Cl`
Response: 102

Query: Another compound to look at: `Cc1cc(N=C2NC(=O)CS2)n[nH]1`
Response: 102

Query: How about this compound: `Cc1ccc(-c2nc(C#N)c(S(=O)(=O)N3CCN(S(=O)(=O)c4ccc(Cl)cc4)CC3)o2)cc1`
Response: 43.8

Query: Repeat with `O=C(COc1ccc2c(c1)CCCC(=O)N2)NCc1ccccc1`
Response: 103

====

# growth annotations
# Test system: HCC-2998 colon
# assay-notes: NCI-60 one-dose screen, 48 h (100 = growth as untreated, 0 = no growth, -100 = all killed)
# protocol-conditions: 10 µM unless noted
This is part of a sample that, as a whole, favours compounds with a hit. Of some 83,000 tested, about 20% had one in any assay.
Numbers only; they are read as %.

Completed entries (count: 5):
compound=COc1cc2oc(-c3cccc(C(=O)Nc4ccc(Cl)cc4)c3)cc(=O)c2c(OCCNC(=O)[C@H](CCC(=O)OC(C)(C)C)NC(=O)OC(C)(C)C)c1OC measurement_kind=growth quantitative_result=118
compound="COCOc1cc2c(=O)c(C)c(C(=O)N[C@@H](Cc3ccccc3)C(O)C(=O)NCc3ccccc3)oc2cc1OC (stereo partly drawn)" measurement_kind=growth quantitative_result=57.3
compound=O=c1cc(-c2ccccc2)oc2cc(OCCCC[P+](c3ccccc3)(c3ccccc3)c3ccccc3)cc(O)c12 measurement_kind=growth quantitative_result=-93.1
compound=C#CCOc1ccc(/C=N/Nc2nc(-c3cc4cc(Br)ccc4oc3=O)cs2)cc1OC measurement_kind=growth quantitative_result=39.6
compound=COc1ccc(NC(=O)Cn2c3c(sc2=O)[C@H]2[C@@H](O)[C@@H](O)[C@H](O)[C@@H]2CS3)cc1 measurement_kind=growth quantitative_result=114

Query: Query the reported growth for HCC-2998 colon; item: `CN(C)c1ccnc(CNCCSC2(c3ccc(C(F)(F)F)cc3)c3ccccc3CCc3ccccc32)c1`
Response: -91.6

Query: Then `O=C(c1ccccc1)c1ccc2nc(-c3cccc(Cl)c3)[nH]c2c1` ?
Response: 110

Query: What do we get for `CCCCSc1nc(Nc2ccc(S(N)(=O)=O)cc2)c(C#N)c(-c2cc(OC)c(OC)c(OC)c2)n1` ?
Response: 65

====

# Test system: K-562 leukemia
# assay-notes: NCI-60 one-dose screen, 48 h (100 = growth as untreated, 0 = no growth, -100 = all killed)
# protocol-conditions: 10 µM unless noted
About 83,000 compounds went through this panel and 20% of them were active in at least one assay; those are over-represented in the sample as a whole.
measurement-kind: growth (%)
// units = %; emit number, no label

Some solved entries appear below for comparison.
compound="CN(C)c1nc(NCCNS(=O)(=O)c2ccc(C3=Nc4c(N)nc(N)nc4NC(c4ccc(F)cc4)C3)cc2)nc(Nc2ccc(F)cc2)n1 (stereo not drawn)" reading_unit=% quantitative_result=3.61
compound=Cn1cc(-c2cc(N)n3nc(-c4cn(C)c5ncc(Br)cc45)cc3n2)c2cc(Br)cnc21 reading_unit=% quantitative_result=-41.6
compound=N#Cc1c(-c2cccc(O)c2O)cc(-c2ccc3ccccc3c2)[nH]c1=O reading_unit=% quantitative_result=67.1
compound=C#CCOc1ccc(/C=N/Nc2nc(-c3ccc(F)cc3)cs2)cc1OC reading_unit=% quantitative_result=25
compound="CC1(C)CC[C@]2(C(=O)O)CC[C@]3(C)C(=CCC4[C@@]5(C)C[C@@H](O)[C@@H]6OC(c7ccccc7F)OC[C@@]6(C)C5CC[C@]43C)C2C1 (stereo partly drawn)" reading_unit=% quantitative_result=12.8

Query: # lookup: growth of `N/N=C(\N)c1c(N)nc(=S)[nH]c1-c1ccc(Cl)cc1Cl`
Response: 105

Query: // repeat for `COc1ccc(-c2cc(C(=O)NCc3ccccc3)nn2-c2ccc(S(C)(=O)=O)cc2)cc1OC` and report
Response: 105

Query: How about `CC(C)CSc1nc(NCCc2c[nH]c3ccccc23)c(C#N)c(-c2ccc(F)cc2)n1` ?
Response: 18.9

====

# System: KM12 colon
# assay-notes: NCI-60 one-dose screen, 48 h (100 = growth as untreated, 0 = no growth, -100 = all killed)
# protocol-conditions: 10 µM unless noted
Compounds without any hit were thinned out: in the full panel of roughly 83,000, 20% have a hit.
Below is a list of entries, each paired with its recorded growth value.
Express the result in % but write the number alone.

Query: Item `C=CC(=O)Nc1ccc(C)c(Oc2ccc(Cl)cc2)c1` has what recorded growth?
Response: 47.2

Query: Continue with `C#CCOc1ccc(/C=N/Nc2nc(-c3ccc(Cl)cc3)cs2)cc1OC`
Response: 61.8

Query: What would you report for `O=C(CN1C(=O)/C(=C/c2ccccc2F)SC1=S)N1CCOCC1` ?
Response: 99.1

Query: Follow-up item: `O=C1/C(=C/C2=Cc3ccccc3OC2)SC(=S)N1c1ccccc1F`
Response: 102

Query: What about `CC(=O)c1cc(C(=O)c2ccccc2)n2c1ccc1ccccc12` ?
Response: 83.1

Query: Please do the same for `COc1ccc(C(=O)/C=C/c2cccc(Br)c2)cc1S(N)(=O)=O` as well.
Response: -62.8

====

# Tested on: UACC-62 melanoma
# assay-notes: NCI-60 one-dose screen, 48 h (100 = growth as untreated, 0 = no growth, -100 = all killed)
# protocol-conditions: 10 µM unless noted
About 83,000 compounds went through this panel and 20% of them were active in at least one assay; those are over-represented in the sample as a whole.
Outcome label depends on growth relative to 40%: at/above gives y, below gives n.

Worked set:
molecule=NS(=O)(=O)c1ccc(-n2cc(-c3cccc(NC(=O)c4ccc(Cl)c(C(F)(F)F)c4)c3)nn2)cc1 measured_on="UACC-62 melanoma" label_value=n
molecule="O=C(c1ccc(OCCN2CCOCC2)cc1)C1[C@H](c2ccc(Cl)cc2)[C@@H](c2ccccc2)NC12C(=O)Nc1ccc(Br)cc12 (stereo not given in full)" measured_on="UACC-62 melanoma" label_value=n
molecule=N/N=C(\N)c1c(N)nc(=S)[nH]c1-c1ccc(Cl)cc1Cl measured_on="UACC-62 melanoma" label_value=y
molecule="CC1(C)CC[C@]2(C(=O)Nc3ccc(Br)cc3)CC[C@]3(C)C(=CCC4[C@@]5(C)C[C@@H](O)[C@H](O)[C@@](C)(CO)C5CC[C@]43C)C2C1 (stereo not given in full)" measured_on="UACC-62 melanoma" label_value=n

Now consider a different molecule.
Query: Check if growth >= 40% (inclusive). Item: `O=C(COc1ccc(NC(=O)Nc2ccc(Cl)c(Cl)c2)cc1)N=Nc1c(O)[nH]c2ccc([N+](=O)[O-])cc12`
Response: y
